These data points were gathered from paper PMC4912613.

# Tested on: CYTbQi (cytb G33A, parent Dd2)
# Experiment description: Cross-resistance EC50 assay, CYTbQi
# Format: cell-based
# Condition label: Plasmodium falciparum, DD2; SYBR green 72 hour assay; synchronized parasites; 384-well format; CYTbQi strain
Reported EC50 values follow for various molecules
The answer is to be given in nM; state only the numeric part.

Examples with their reported EC50 follow.
1) COc1ccc2c3c([nH]c2c1)[C@H](CO)N(C(C)=O)CC31CCN(C(=O)Nc2ccccc2F)CC1: 84
2) COc1ccc(NC(=O)N2CCCCN3[C@H](CN)[C@H](c4ccc(C#Cc5ccccc5)cc4)[C@@H]3C2)cc1: 18

Moving on to another molecule below.
# query: EC50 | item `CN(C)CCCNCc1ccc(-c2ccc(Cl)c(Cl)c2)o1` | system: CYTbQi (cytb G33A, parent Dd2) 319

====

Reported EC50 values follow for various compounds
# Test system: GNF156R (PfCARL L830V, S1076I and M81I, parent Dd2)
# Experiment description: Cross-resistance EC50 assay, GNF156R
# Assay type: cell-based
# Condition label: Plasmodium falciparum, SYBR green 72 hour assay, asynchronized parasites, 96-well or 1536-well format

Examples with their reported EC50 follow.
1) Nc1ncc(-c2cn[nH]c2)cc1-c1nc2ccc(F)cc2[nH]1 [MMV023367]: 2.54 µM
2) CCN(CC)CCn1c(=N)n(CC(O)c2ccc(Cl)c(Cl)c2)c2ccccc21.Cl (stereo not shown) [MMV000248]: 0.432 µM
3) COc1cc(-c2nc(-c3ccccc3)c(-c3ccccc3)[nH]2)ccc1OCCN(C)C [MMV027496]: 1.8 µM

Which EC50 is reported for this compound? CNCc1ccc2nc(-c3coc(Cc4cc(Cl)ccc4OCC(C)C)n3)[nH]c2c1.Cl.Cl [MMV026596] 0.414 µM

====

# Tested on: GNF449-R2 (PfATP4 I203L and P990R, parent Dd2)
# Experiment description: Cross-resistance EC50 assay, GNF449-R2
# Type: cell-based
# Condition label: Plasmodium falciparum, SYBR green 72 hour assay, asynchronized parasites, 96-well or 1536-well format
Assay readout: EC50 (µM)
The answer is to be given in µM; state only the numeric part.

Examples with their reported EC50 follow.
1) O=C(NCC(CCCN1CCC(c2c[nH]c3ccccc23)CC1)c1ccccc1)Nc1ccc(Cl)c(Cl)c1 (centres unmarked) [MMV029272]: 0.373
2) CCCOCc1cc(CN2CCN(c3cccc(Cl)c3)CC2)c(O)c2ncccc12 [MMV000787]: 1.7
3) COCCNCC(O)Cn1c2ccc(Cl)cc2c2cc(Cl)ccc21 (centres unmarked) [MMV019017]: 0.636
4) COc1cc(C(=O)ON=C(N)Cc2cccc3ccccc23)cc(OC)c1OC [MMV666687]: 0.813
5) CN(C)Cc1ccc(-c2cc3c(-c4ccc(CN(C)C)cc4)ccnc3[nH]2)cc1.O=C(O)C(F)(F)F [MMV022224]: 0.518

Which EC50 is reported for this molecule? c1cncc(-c2cc(N3CCC(CN4CCOCC4)CC3)nc(-c3ccncc3)n2)c1 [MMV668399] 0.938

Which EC50 is reported for this molecule? COc1ccc(C(=O)C2CC2c2ccc(Cl)cc2)cc1 (centres unmarked) [MMV665924] 1.29

Which EC50 is reported for this molecule? COC(=O)c1ccc(C2C3=C(O)CC(c4ccc(F)cc4)CC3=Nc3ccccc3N2C(=O)c2ccccc2)cc1 (centres unmarked) [MMV011438] 0.552

Which EC50 is reported for this molecule? CN(C)S(=O)(=O)c1cc(-c2ccc3nccc(-c4cccc(S(N)(=O)=O)c4)c3c2)cnc1N [MMV024038] 1

Which EC50 is reported for this molecule? CCCCCCCN(Cc1ccc(OC(C)(C)C(=O)OCC)cc1)C(=O)Nc1ccc(Cl)cc1OCC [MMV021735] 1.78

Which EC50 is reported for this molecule? COc1ccc2c3c([nH]c2c1)[C@H](CO)N(C(C)=O)CC31CCN(C(=O)Nc2ccccc2F)CC1 [MMV673482] 0.007

Which EC50 is reported for this molecule? COc1ccc(-c2nc(NC(=O)Cc3ccc4c(c3)OCCO4)sc2C)cc1 [MMV019719] 0.405

Which EC50 is reported for this molecule? COc1ccc(N2CCN(C(CNC(=O)C3CCCCC3)c3ccc4c(c3)OCO4)CC2)cc1 (centres unmarked) [MMV019662] 0.452

Which EC50 is reported for this molecule? O=C(Nc1ccc(Cl)c(Cl)c1)Nc1ccc(Cl)c(Cl)c1 [MMV665852] 1.95

Which EC50 is reported for this molecule? Nc1ccc(-c2nc3cc(Oc4ccc(Oc5ccc6[nH]c(-c7ccc(N)cc7)nc6c5)cc4)ccc3[nH]2)cc1 [MMV011895] 0.644

Which EC50 is reported for this molecule? FC(F)(F)c1cccc(Nc2nc3ccccc3nc2Nc2cccc(C(F)(F)F)c2)c1 [MMV665794] 0.37

Which EC50 is reported for this molecule? Nc1ncc(-c2cn[nH]c2)cc1-c1nc2ccc(F)cc2[nH]1 [MMV023367] 2.66

====

# System: W2
# Experiment description: Cross-resistance EC50 assay, W2 parent
# Format: cell-based, Plasmodium falciparum
# Condition label: Plasmodium falciparum, 48 h, read-out: W2F6 (PARENT) Average EC50
pEC50: −log10 of the molar value.
Label true (1) for high-side pEC50 (at or above 7) and false (0) for low-side pEC50 (below it).

Reference set (3 entries):
1. CC(C)(C)OC(=O)N1CCN(c2ccccc2NC(=O)c2cccc(C(F)(F)F)c2Oc2ccc(F)cc2)CC1: false (0)
2. COc1ccc(C(=O)C2CC2c2ccc(Cl)cc2)cc1 (centres unmarked): false (0)
3. COc1ccc(NC(=O)N2CCCCN3[C@H](CO)[C@H](c4ccc(C#Cc5ccccc5)cc4)[C@@H]3C2)cc1: true (1)

Test whether the molecule O=C(NCC(CCCN1CCC(c2c[nH]c3ccccc23)CC1)c1ccccc1)Nc1ccc(Cl)c(Cl)c1 (centres unmarked) records pEC50 of 7 or higher. false (0)

====

# Tested on: HepG2
# Experiment description: Hepatocyte toxicity
# Format: cell-based, human
# Condition label: hepatocyte toxicity / 3D7 EC50
Assay readout: EC50 fold shift compared to asexual stage: Hepatocyte Toxicity
# output: bare number, no unit

1) CN(C)CCCNCc1ccc(-c2ccc(Cl)c(Cl)c2)o1 [MMV673964]: 32.67

Which EC50 fold shift compared to asexual stage: Hepatocyte Toxicity is reported for this compound? COc1cc(-c2nc(-c3ccccc3)c(-c3ccccc3)[nH]2)ccc1OCCN(C)C [MMV027496] 121.53

====

# System: HepG2
# Experiment description: Hepatocyte toxicity
# Format: cell-based, human
# Condition label: hepatocyte toxicity / 3D7 EC50
Reported EC50 fold shift compared to asexual stage: Hepatocyte Toxicity values follow for various compounds
# output: bare number, no unit

Examples with their reported EC50 fold shift compared to asexual stage: Hepatocyte Toxicity follow.
1. Cc1ccc(S(=O)(=O)n2cc(-c3ccnc(N)c3)c3cc(Br)cnc32)cc1: 35.43
2. Nc1ccc(-c2nc3cc(Cc4ccc5[nH]c(-c6ccc(N)cc6)nc5c4)ccc3[nH]2)cc1: 45.22
3. CNCc1ccc2nc(-c3coc(Cc4cc(Cl)ccc4OCC(C)C)n3)[nH]c2c1.Cl.Cl: 38.79
4. CN(C)S(=O)(=O)c1cc(-c2ccc3nccc(-c4cccc(S(N)(=O)=O)c4)c3c2)cnc1N: 0.64
5. CC(C)c1cccc(C(NC(=O)C2Cc3ccccc3CN2C(=O)c2cccc(N3CCOCC3)c2)C2CCCC2)c1 (stereo not drawn): 35.63

Which EC50 fold shift compared to asexual stage: Hepatocyte Toxicity is reported for this compound? `Brc1ccc(Nc2nc3ccccc3nc2Nc2ccc(Br)cc2)cc1` 8.41

====

Reported EC50 values follow for various compounds
# Test system: Dd2
# Experiment description: Cross-resistance EC50 assay, Dd2 parent
# Format: cell-based, Plasmodium falciparum
# Condition label: Plasmodium falciparum, DD2, 72 h, read-out: Dd2 (PARENT) EC50 (µM) Average EC50
The answer is to be given in µM; state only the numeric part.

1. c1cc(-c2cnc3ccc(-c4ccc(N5CCOCC5)cc4)nn23)ccn1: 0.039

# query: EC50 | item `Cc1c(C)n(Cc2ccc(F)cc2)c2ccc(C(=O)NCc3ccco3)cc12` | system: Dd2 1.63

# query: EC50 | item `COc1cc(-c2nc(-c3ccccc3)c(-c3ccccc3)[nH]2)cc(OC)c1O` | system: Dd2 0.773

# query: EC50 | item CCC(C)NCC(O)(c1ccc(Cl)cc1)c1ccc(Cl)cc1 (stereo not drawn) | system: Dd2 0.331

# query: EC50 | item `Cc1ccc(Oc2ncccc2C(=O)Cc2cccc3cccnc23)c(C)c1` | system: Dd2 1.86

# query: EC50 | item `COc1ccc(NC(=O)N2CCCCN3[C@H](CN)[C@H](c4ccc(C#Cc5ccccc5)cc4)[C@@H]3C2)cc1` | system: Dd2 0.00257

# query: EC50 | item O=C(NC(c1ccccc1)c1ccc2cccnc2c1O)c1ccccc1 (stereo not drawn) | system: Dd2 0.886

# query: EC50 | item `Cc1cc(Nc2ccc(OCc3ccccc3)cc2)nc2cc(O)ccc12` | system: Dd2 0.19

# query: EC50 | item CCN(CC)CCn1c(=N)n(CC(O)c2ccc(Cl)c(Cl)c2)c2ccccc21.Cl (stereo not drawn) | system: Dd2 0.413
